For each entry below, report its CREATINE PHOSPHOKINASE value.
Species: Rattus norvegicus
EXPERIMENT_DESCRIPTION: DrugMatrix - Regimen: Daily Repeat
Type: toxicity, organism-based, Sprague-Dawley
Design: regimen Daily Repeat, gender Male, age 6-8 weeks
EXPERIMENTAL_CONTEXT: in vivo, po, 50 mg/kg, 72 h, tissue Plasma, route oral GAVAGE, dose level Low, time 3 day, vehicle .5 % CMC
Report only the number, with the unit u/L understood.

Which CREATINE PHOSPHOKINASE reading was recorded for the molecule NC1CCN(c2nc3c(cc2F)c(=O)c(C(=O)O)cn3-c2ccc(F)cc2F)C1 (centres undefined) [TOSUFLOXACIN] ? 121.33

What would you report for CN(C)[C@@H]1C(O)=C(C(N)=O)C(=O)[C@@]2(O)C(O)=C3C(=O)c4c(O)ccc(Cl)c4[C@@](C)(O)[C@H]3C[C@@H]12 [CHLORTETRACYCLINE] ? 273.67

Proceed to CCN1CCC[C@H]1CNC(=O)c1cc(S(N)(=O)=O)ccc1OC [LEVOSULPIRIDE] 137

Try the molecule Cc1cccc(C)c1OCC(C)N (centres undefined) [MEXILETINE] 249.33

Where these numbers come from: ChEMBL document CHEMBL3885881
